Recorded values, source the NIST ThermoML archive (doi:10.1021/je101316g).

# method-description: refractive index (Na D-line) (dimensionless)
# test-conditions: 313.15 K; 101.33 kPa; Liquid; Standard Abbe refractometry
Reported refractive index by item:
metric-name: refractive index

INSERT INTO results (compound, reading) VALUES
  ('CCCCCCCCCCCCOS(=O)(=O)[O-].CCCCCCn1cc[n+](CCC#N)c1 [3-(2-cyanoethyl)-1-hexyl-1H-imidazolium dodecyl sulfate]', 1.47991),
  ('CCCCCCn1cc[n+](CCC#N)c1.O=S(=O)([O-])c1ccccc1 [3-(2-cyanoethyl)-1-hexyl-1H-imidazolium benzenesulfonate]', 1.52382),
  ('CCCCCCn1cc[n+](CCC#N)c1.O=C([O-])c1cccc(S(=O)(=O)O)c1 [3-(2-cyanoethyl)-1-hexyl-1H-imidazolium 3-sulfobenzoate]', 1.52029),
  ('CCCCCCn1cc[n+](CCC#N)c1.O=S(=O)([O-])C(F)(F)F', 1.52683),
  ('CCCCC(CC)COC(=O)CC(C(=O)OCC(CC)CCCC)S(=O)(=O)[O-].CCCCCC[n+]1ccn(CCC#N)c1 (stereo not given)', 1.4758);

###

# method-description: refractive index (Na D-line) (dimensionless)
# test-conditions: 318.15 K; 101.33 kPa; Liquid; Standard Abbe refractometry
Reported refractive index by item:
metric-name: refractive index

INSERT INTO measurements (compound, metric_name, reading) VALUES
  ('CCCCCCn1cc[n+](CCC#N)c1.O=C([O-])c1cccc(S(=O)(=O)O)c1 [3-(2-cyanoethyl)-1-hexyl-1H-imidazolium 3-sulfobenzoate]', 'refractive index', 1.51936),
  ('CCCCCCn1cc[n+](CCC#N)c1.O=S(=O)([O-])c1ccccc1 [3-(2-cyanoethyl)-1-hexyl-1H-imidazolium benzenesulfonate]', 'refractive index', 1.52266),
  ('CCCCC(CC)COC(=O)CC(C(=O)OCC(CC)CCCC)S(=O)(=O)[O-].CCCCCC[n+]1ccn(CCC#N)c1 (stereo not given)', 'refractive index', 1.47447),
  ('CCCCCCCCCCCCOS(=O)(=O)[O-].CCCCCCn1cc[n+](CCC#N)c1 [3-(2-cyanoethyl)-1-hexyl-1H-imidazolium dodecyl sulfate]', 'refractive index', 1.47863),
  ('CCCCCCn1cc[n+](CCC#N)c1.O=S(=O)([O-])C(F)(F)F', 'refractive index', 1.5259);

###

Reported refractive index by item:
# method-description: refractive index (Na D-line) (dimensionless)
# test-conditions: 333.15 K; 101.33 kPa; Liquid; Standard Abbe refractometry
metric-name: refractive index

INSERT INTO results (molecule, reading) VALUES
  ('CCCCC(CC)COC(=O)CC(C(=O)OCC(CC)CCCC)S(=O)(=O)[O-].CCCCCC[n+]1ccn(CCC#N)c1 (stereo not given)', 1.47029),
  ('CCCCCCn1cc[n+](CCC#N)c1.O=S(=O)([O-])c1ccccc1 [3-(2-cyanoethyl)-1-hexyl-1H-imidazolium benzenesulfonate]', 1.51899),
  ('CCCCCCn1cc[n+](CCC#N)c1.O=C([O-])c1cccc(S(=O)(=O)O)c1 [3-(2-cyanoethyl)-1-hexyl-1H-imidazolium 3-sulfobenzoate]', 1.51502),
  ('CCCCCCn1cc[n+](CCC#N)c1.O=S(=O)([O-])C(F)(F)F', 1.52226),
  ('CCCCCCCCCCCCOS(=O)(=O)[O-].CCCCCCn1cc[n+](CCC#N)c1 [3-(2-cyanoethyl)-1-hexyl-1H-imidazolium dodecyl sulfate]', 1.47422);
